This collection of values is drawn from patent EP3984547A1.

Molecular target: T1, Histidine-tagged human TWEAK (His6-TWEAK) protein (R&D Systems) (human, UniProt O43508 93-249, limits assumed)
T1 construct: Bought protein, captured through the His6 tag on an NTA chip and then coupled covalently by amine coupling; also called human His6-TWEAK protein; histidine-tagged TWEAK; not shown: His6 tag
T1 sequence (looked up): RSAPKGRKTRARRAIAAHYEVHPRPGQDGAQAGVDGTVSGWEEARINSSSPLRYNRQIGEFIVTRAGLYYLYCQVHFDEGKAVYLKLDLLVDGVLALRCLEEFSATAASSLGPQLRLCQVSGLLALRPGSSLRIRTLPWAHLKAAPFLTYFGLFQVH
Assay: SPR (Biacore 3000), His6-TWEAK immobilized on NTA chip, peptide as analyte, 1:1 Langmuir fit
Where no end group is shown, it is not given here.
recorded_endpoint: Kd (µM)
Give bare numbers, in µM.

Look up Kd for this binder: TTDGSTGDDLQA-NH2 [Peptide 2: TTDGSTGDDLQA (SEQ ID NO: 1)]
170
